Molecular target: KRas G12R (Homo sapiens, UniProt P01116, G12R)
Sequence (P01116 1-169 isoform P01116-2 G12R): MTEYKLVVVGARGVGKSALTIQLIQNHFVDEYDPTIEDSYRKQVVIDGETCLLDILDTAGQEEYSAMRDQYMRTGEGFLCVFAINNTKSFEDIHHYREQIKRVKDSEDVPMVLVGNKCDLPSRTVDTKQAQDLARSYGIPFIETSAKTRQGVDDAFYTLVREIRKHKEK
Assay: biochemical
The reader will find reported pIC50 values listed item by item below.
Schema: pIC50 number; meaning minus log10 of the concentration expressed in molar units.

CCc1c(F)ccc2cc(O)cc(-c3ncc4c(NCC5(O)CCCCC5)nc(OC[C@@]56CCCN5C[C@H](F)C6)nc4c3F)c12 ... 7.41
CCc1cccc2cccc(-c3ncc4c(N5CCCC(c6nc[nH]n6)C5)nc(OCC56CCCN5CCC6)nc4c3F)c12 (stereo not shown) ... 6.23
CCc1c(F)ccc2cc(O)cc(-c3ncc4c(N5CCOC6(CCS(=N)(=O)CC6)C5)nc(OC[C@@]56CCCN5C[C@H](F)C6)nc4c3F)c12 (stereo partly shown) ... 6.91
NS(=O)(=O)CC1CCCN(c2nc(OCC34CCCN3CCC4)nc3c(F)c(-c4cccc5ccccc45)ncc23)C1 (stereo not shown) ... 6.48
O=C1CC2(CCCN(c3nc(OCC45CCCN4CCC5)nc4c(F)c(-c5cccc6cccc(F)c56)ncc34)C2)C(=O)N1 (stereo not shown) ... 5.72

Task item: Recall the recorded pIC50 for O=C1CC(CNc2nc(OCC34CCCN3CCC4)nc3c(F)c(-c4cccc5cccc(F)c45)ncc23)CN1 (stereo not shown) with KRas G12R (Homo sapiens, UniProt P01116, G12R) and state it.
Reply: 5.36

---

Molecular target: KRas G12R (Homo sapiens, UniProt P01116, G12R)
Experiment: biochemical
pIC50: −log10 of the molar value.
Decide using pIC50: a value greater than or equal to 6 is Met, a smaller one is Not met.

OCC12CC(Nc3nc(OCC45CCCN4CCC5)nc4c(F)c(-c5cccc6cccc(F)c56)ncc34)(C1)C2 ... Not met

Task item: Identify whether the reported pIC50 of the following compound is 6 or greater: O=C1CC2(CCCN(c3nc(OCC45CCCN4CCC5)nc4c(F)c(-c5cccc6cccc(CCF)c56)ncc34)C2)N1 (stereo not shown)
Reply: Met

Task item: Given CCc1cccc2cc3[nH]ncc3c(-c3ncc4c(N5CCC[C@@](C)(O)C5)nc(OC[C@@]56CCCN5C[C@H](F)C6)nc4c3F)c12 , state whether its pIC50 is at least 6.
Reply: Met

Task item: Hello, I need to know if Cc1ccc(O)cc1-c1ncc2c(N3CCCC(C)(O)C3)nc(OCC34CCCN3CCC4)nc2c1F (stereo not shown) has measured pIC50 not below 6. Thanks!
Reply: Not met

---

Target: KRas G12R (Homo sapiens, UniProt P01116, G12R)
Assay: biochemical
Below: a set of entries, each annotated with reported IC50.

Consider the following illustrative entries.
CCc1c(F)ccc2cc(O)cc(-c3ncc4c(N5CCCCCC5)nc(OC[C@@]56CCCN5C[C@H](F)C6)nc4c3F)c12 ... ≤ 0.002 µM
Fc1c(-c2cccc3cccc(F)c23)ncc2c(N3CCCC4(CC(F)C4)C3)nc(OCC34CCCN3CCC4)nc12 (stereo not drawn) ... 1.85 µM
CC(Nc1nc(OCC23CCCN2CCC3)nc2c(F)c(-c3cccc4cccc(F)c34)ncc12)c1c[nH]c2ncccc12 (stereo not drawn) ... 2.12 µM

Task item: IC50 lookup needed for O=C1NCC2(CCN(c3nc(OCC45CCCN4CCC5)nc4c(F)c(-c5cccc6cccc(F)c56)ncc34)CC2)N1 , thanks.
Reply: 7.57 µM

Task item: Reported IC50, molecule CCc1c(F)ccc2cc(O)cc(-c3ncc4c(N5CCC(F)(F)C(O)C5)nc(OC[C@@]56CCCN5C[C@H](F)C6)nc4c3F)c12 (stereo partly drawn) : ____
Reply: 0.004 µM

Task item: Entry CCc1c(F)ccc2cc(O)cc(-c3ncc4c(NCC(N)CC(=O)O)nc(OC[C@@]56CCCN5C[C@H](F)C6)nc4c3F)c12 (single isomer, unassigned) has what IC50?
Reply: 0.015 µM

---

Target: KRas G12R (Homo sapiens, UniProt P01116, G12R);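 also: TR-FRET displacement assay of compound binding to KRas, read after one hour at room temperature, potency from a four-parameter fit of percent-of-control values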
Assay: biochemical
The reader will find reported IC50 values listed item by item below.
Hi! Could you send only the number? It should be in nM, unit omitted.

// solved cases for IC50 follow
C[C@@]1(O)CCCN(c2nc(OC[C@@]34CCCN3C[C@H](F)C4)nc3c(F)c(-c4cc(O)cc5ccc(F)c(Cl)c45)ncc23)C1 [Example 418] ... 3
N#Cc1cccc2cccc(-c3ncc4c(N5CCCC6(C5)NC(=O)NC6=O)nc(OCC56CCCN5CCC6)nc4c3F)c12 (stereo not shown) [Example 449] ... 4380
Oc1nc(CCCNc2nc(OCC34CCCN3CCC4)nc3c(F)c(-c4cccc5cccc(Cl)c45)ncc23)n[nH]1 [Example 103] ... 1500
Fc1c(-c2cccc3cccc(F)c23)ncc2c(NCCc3ccn[nH]3)nc(OCC34CCCN3CCC4)nc12 [Example 215] ... 8950
CCc1c(F)ccc2cc(O)cc(-c3ncc4c(N5CCN6C(C5)C(=O)NC6(C)C)nc(OC[C@@]56CCCN5C[C@H](F)C6)nc4c3F)c12 (stereo partly shown) [Example 489] ... 310

Task item: Recorded IC50 of NC(=O)NC1CCCN(c2nc(OCC34CCCN3CCC4)nc3c(F)c(-c4cccc5cccc(F)c45)ncc23)C1 (stereo not shown) [Example 241] , please.
Reply: 8620

Task item: What does the record list as IC50 for Cc1cccc2cccc(-c3ncc4c(N5CCCC(CS(N)(=O)=O)C5)nc(OCC56CCCN5CCC6)nc4c3F)c12 (stereo not shown) [Example 438] ?
Reply: 99

---

Test system: pERK in PSN1 cells
Assay: Inhibition of KRas phosphorylation of ERK (Cisbio HTRF pERK assay)
Details: Homo sapiens, PSN1, 3 h, read-out: Inhibition (HTRF IC50) of KRas-mediated Phosphorylation of ERK, PSN1
Quick reference: IC50 of the listed items.

CCc1c(F)ccc2cc(O)cc(-c3ncc4c(N5CCOCC6(CCOCC6)C5)nc(OC[C@@]56CCCN5C[C@H](F)C6)nc4c3F)c12 [Example 500] ... ≥ 10 µM
C#Cc1c(F)ccc2cc(O)cc(-c3ncc4c(N5CCCC6(CC(O)C6)C5)nc(OC[C@@]56CCCN5C[C@H](F)C6)nc4c3F)c12 (stereo partly drawn) [Example 393] ... 0.449 µM

Please examine the following record next.
Task item: Param item = CCc1c(F)ccc2cc(O)cc(-c3ncc4c(NC5CCS(=O)(=O)C5)nc(OC[C@@]56CCCN5C[C@H](F)C6)nc4c3F)c12 (stereo partly drawn) [Example 349] ; retrieve measured IC50.
Reply: ≥ 10 µM

---

Biological target: KRas G13D (Homo sapiens, UniProt P01116, G13D)
Construct: Biotinylated KRas (corresponding to amino acids 1-169, produced at Accelegan Inc.); biotin (biotinylated); purchased Accelegan Inc
Sequence (P01116 1-169 isoform P01116-2 G13D): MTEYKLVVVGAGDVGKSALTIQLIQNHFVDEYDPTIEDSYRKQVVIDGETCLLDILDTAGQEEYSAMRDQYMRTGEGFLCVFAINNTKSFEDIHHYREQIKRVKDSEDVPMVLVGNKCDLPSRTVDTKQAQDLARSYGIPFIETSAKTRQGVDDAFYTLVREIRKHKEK
Assay: KRas binding assay (TR-FRET displacement);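 also: One-hour room temperature incubation before TR-FRET reading, IC50 from a four-parameter curve fit to percent-of-control data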
MEASUREMENT NAME: log10(IC50) (log10 of the value in nM)
Each number you see is log10 of IC50, and the unit inside the log is nM.

As a guide, the following entries are already answered.
Fc1c(-c2cccc3cccc(Cl)c23)ncc2c(N3CCCC(n4cccn4)C3)nc(OCC34CCCN3CCC4)nc12 (centres unmarked) ... 3.64
O=C1CC2(CCN(c3nc(OCC45CCCN4CCC5)nc4c(F)c(-c5cccc6cccc(F)c56)ncc34)CC2)N1 ... 3.08

Task item: What value of log10(IC50) has been reported for the following compound? CCc1c(F)ccc2cccc(-c3ncc4c(N5CCC[C@@](C)(O)C5)nc(OCC56CCCN5CCC6)nc4c3F)c12
Reply: 1.62

---

Target: KRas G12D (Homo sapiens, UniProt P01116, G12D);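 also: TR-FRET displacement binding assay on KRas, read after a one-hour incubation at room temperature, IC50 fitted from percent-of-control values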
Sequence (P01116 1-169 isoform P01116-2 G12D): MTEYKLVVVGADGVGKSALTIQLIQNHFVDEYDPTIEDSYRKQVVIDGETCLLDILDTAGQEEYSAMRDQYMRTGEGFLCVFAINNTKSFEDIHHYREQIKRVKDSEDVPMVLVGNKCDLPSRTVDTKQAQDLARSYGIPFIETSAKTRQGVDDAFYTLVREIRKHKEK
Experiment: biochemical
MEASUREMENT NAME: pIC50
// pIC50 here means minus log10 of the molar concentration (mol/L)

Task item: Which pIC50 value is on record for CN(C)C(=O)n1cc2c(n1)CCCN(c1nc(OCC34CCCN3CCC4)nc3c(F)c(-c4cccc5cccc(F)c45)ncc13)C2 [Example 274] ?
Reply: 6.43

Task item: Recorded pIC50 of NC(=O)[C@H]1CCCN(c2nc(OCC34CCCN3CCC4)nc3c(F)c(-c4cccc5cccc(F)c45)ncc23)C1 [Example 273] , please.
Reply: 5.29

Task item: GET /values?readout=pIC50&item= CCc1c(F)ccc2cc(O)cc(-c3ncc4c(NCCc5c[nH]c6ncccc56)nc(OC[C@@]56CCCN5C[C@H](F)C6)nc4c3F)c12 [Example 157]
Reply: 7.92

Task item: State the recorded pIC50 for this entry: O=S1(=O)CC(Nc2nc(OCC34CCCN3CCC4)nc3c(F)c(-c4cccc5cccc(F)c45)ncc23)C1 [Example 95]
Reply: 4.26

Task item: What value of pIC50 has been reported for the following compound? CCc1c(F)ccc2cc(O)cc(-c3ncc4c(NCc5n[nH]cc5C(N)=O)nc(OC[C@@]56CCCN5C[C@H](F)C6)nc4c3F)c12 [Example 162]
Reply: 7.51
